Biological target: human H4 receptor (Homo sapiens, UniProt Q9H3N8)
Construct: expressed in transfected cells
Sequence (Q9H3N8 whole entry): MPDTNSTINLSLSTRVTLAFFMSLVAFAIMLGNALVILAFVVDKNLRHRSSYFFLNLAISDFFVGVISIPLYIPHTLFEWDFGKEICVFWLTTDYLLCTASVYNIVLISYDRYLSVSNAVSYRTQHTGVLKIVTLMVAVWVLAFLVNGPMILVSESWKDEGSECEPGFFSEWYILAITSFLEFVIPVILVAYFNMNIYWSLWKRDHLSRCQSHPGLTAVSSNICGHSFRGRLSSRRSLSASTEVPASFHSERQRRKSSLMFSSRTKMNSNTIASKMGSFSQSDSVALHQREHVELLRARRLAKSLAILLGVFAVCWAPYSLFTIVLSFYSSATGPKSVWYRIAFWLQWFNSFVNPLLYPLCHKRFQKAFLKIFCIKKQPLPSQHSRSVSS
Assay: [3H]Histamine binding on membranes of CHO cells stably expressing human H4 receptor
quantity: Ki or IC50 activity class

molecule	tested-on	Ki or IC50 activity class
CCc1cccc(C(OC2CCN(C)CC2)c2nc3ccccc3s2)c1 (centres unmarked)	human H4 receptor (Homo sapiens, UniProt Q9H3N8)	< 30 nM
CN1CCC(OC(c2cc(F)cc(F)c2)c2nc3ccccc3s2)CC1 (centres unmarked)	human H4 receptor (Homo sapiens, UniProt Q9H3N8)	< 300 nM
CN1CCC(OC(c2cccc(SCC(=O)NN)c2)c2nc3ccccc3s2)CC1 (centres unmarked)	human H4 receptor (Homo sapiens, UniProt Q9H3N8)	< 300 nM

# input for lookup
Reported Ki or IC50 activity class for CN1CCC(COC(c2cccc(Br)c2)c2nc3ccccc3s2)C1 (single isomer, unassigned) [Example 464] was < 30 nM
